- targetOrSystem: Tyrosine-protein kinase HCK (Homo sapiens) (UniProt P08631)
- Sequence (P08631 2-526 limits assumed): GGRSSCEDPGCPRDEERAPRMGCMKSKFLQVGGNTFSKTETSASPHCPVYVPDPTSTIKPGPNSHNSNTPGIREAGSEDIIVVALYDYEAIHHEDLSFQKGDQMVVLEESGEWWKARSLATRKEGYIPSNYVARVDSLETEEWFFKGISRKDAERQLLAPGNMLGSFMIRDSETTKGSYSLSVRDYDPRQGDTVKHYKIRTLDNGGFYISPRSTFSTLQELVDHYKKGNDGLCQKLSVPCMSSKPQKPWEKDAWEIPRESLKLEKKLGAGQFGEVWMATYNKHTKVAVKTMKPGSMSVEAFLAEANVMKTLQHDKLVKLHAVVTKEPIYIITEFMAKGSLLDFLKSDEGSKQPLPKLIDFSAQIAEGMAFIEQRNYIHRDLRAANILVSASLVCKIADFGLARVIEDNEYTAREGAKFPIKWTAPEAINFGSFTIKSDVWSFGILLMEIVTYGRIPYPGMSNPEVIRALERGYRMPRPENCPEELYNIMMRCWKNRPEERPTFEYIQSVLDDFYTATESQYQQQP
- details: at 0.1 µM
readout: inhibition (%)
I only need the number, in %, no unit after it.

### Prompt Retrieve inhibition on Tyrosine-protein kinase HCK (Homo sapiens) (UniProt P08631); query O=C(Nc1n[nH]c2cc(-c3cc(F)ccc3F)ccc12)C1CC1
### Response 7.73

### Prompt Enter inhibition (test system Tyrosine-protein kinase HCK (Homo sapiens) (UniProt P08631)) for CCc1nccc2c1nc(-c1nonc1N)n2CC
### Response 11.6

### Prompt Lab note: record inhibition of Fc1ccc(-c2ncn(C3CCNCC3)c2-c2ccnc(Oc3ccc(Oc4ccccc4)cc3)n2)cc1 tested on Tyrosine-protein kinase HCK (Homo sapiens) (UniProt P08631).
### Response 5.33

### Prompt Provide the reported inhibition (system: Tyrosine-protein kinase HCK (Homo sapiens) (UniProt P08631)) for COc1ccc2ncn(-c3cc(O[C@H](C)c4ccccc4Cl)c(C(N)=O)s3)c2c1
### Response 5.34

### Prompt Fill in inhibition for NCc1ccc(-n2c(-c3nonc3N)nc3cnccc32)cc1 tested with Tyrosine-protein kinase HCK (Homo sapiens) (UniProt P08631).
### Response 6.26

### Prompt State, for Tyrosine-protein kinase HCK (Homo sapiens) (UniProt P08631), measured inhibition of the compound listed here: COc1cc2ncn(-c3cc(OCc4cccs4)c(C(N)=O)s3)c2cc1OC
### Response 4.48

### Prompt Specify the recorded inhibition for Nc1nccc(-c2c(-c3ccc(F)cc3)ncn2C2CCC(O)CC2)n1 (stereo unspecified) , system: Tyrosine-protein kinase HCK (Homo sapiens) (UniProt P08631).
### Response 1.96

### Prompt Answer briefly: inhibition recorded on Tyrosine-protein kinase HCK (Homo sapiens) (UniProt P08631) for COc1cc(Nc2ncc3c(C)nc(-c4cccc(Oc5ccccc5)c4)n3n2)cc(OC)c1OC
### Response 3.59

### Prompt Give measured inhibition for c1ccc(Oc2ccc(Nc3ncc(-c4ccccc4)o3)cc2)cc1 (Tyrosine-protein kinase HCK (Homo sapiens) (UniProt P08631)).
### Response 3.85

### Prompt For Tyrosine-protein kinase HCK (Homo sapiens) (UniProt P08631), give the measured inhibition of the entry Cc1ccc(C(=O)NC2CCC2)cc1-c1ccc(C(=O)NCC2CC2)cc1
### Response 4.64

### Prompt Report measured inhibition on Tyrosine-protein kinase HCK (Homo sapiens) (UniProt P08631); entry: COc1ccc(-c2ccc3c(NC(=O)C4CC4)n[nH]c3n2)cc1
### Response -0.93

### Prompt Give reported inhibition for COc1ccc(C2=C(N3CCc4ccccc43)C(=O)NC2=O)cc1 (Tyrosine-protein kinase HCK (Homo sapiens) (UniProt P08631))
### Response 8.17

### Prompt Under Tyrosine-protein kinase HCK (Homo sapiens) (UniProt P08631), report inhibition for Cc1ccc(NC(=O)c2ccoc2)cc1-c1ccc(C(=O)NCC2CC2)cc1
### Response 4.54

### Prompt Fill: inhibition (Tyrosine-protein kinase HCK (Homo sapiens) (UniProt P08631)) for this compound CS(=O)(=O)CCNCc1cc(-c2cc3c(Nc4ccc(OCc5cccc(F)c5)c(Cl)c4)ncnc3s2)cs1
### Response 6.52

### Prompt State inhibition (Tyrosine-protein kinase HCK (Homo sapiens) (UniProt P08631)) of CCC(=O)Nc1ccc(C)c(-c2ccc(C(=O)NCC3CC3)cc2)c1 .
### Response 5.93

### Prompt Tell me inhibition of FC(F)(F)c1cccc(Nc2nccc(-c3cnn4nc(-c5ccccc5)ccc34)n2)c1 when tested on Tyrosine-protein kinase HCK (Homo sapiens) (UniProt P08631).
### Response 1.72

### Prompt Return reported inhibition for target or system Tyrosine-protein kinase HCK (Homo sapiens) (UniProt P08631), item CN(c1ccc(NC(=O)Nc2c(Cl)cccc2Cl)cc1)c1ccnc(Nc2cccc(CS(C)(=O)=O)c2)n1 .
### Response 22.5

### Prompt Enter measured inhibition, system Tyrosine-protein kinase HCK (Homo sapiens) (UniProt P08631), for the compound shown: NC(=O)Cc1ccccc1Oc1nccc(-c2c(-c3ccc(F)cc3)ncn2C2CCNCC2)n1;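 further: values are mean inhibition of HCK, taken from the GSK_PKIS kinase profiling screen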
### Response 2.65

### Prompt Fill in: inhibition on Tyrosine-protein kinase HCK (Homo sapiens) (UniProt P08631), entry CCc1ccc(Oc2nccc(-c3c(-c4ccc(F)cc4)ncn3C3CCNCC3)n2)cc1
### Response 4.84

### Prompt Give measured inhibition for COc1cc(Nc2ncc(-c3ccccc3)o2)cc(OC)c1OC (Tyrosine-protein kinase HCK (Homo sapiens) (UniProt P08631)).
### Response 3.3

### Prompt State the measured inhibition (Tyrosine-protein kinase HCK (Homo sapiens) (UniProt P08631)) of O=C(Nc1n[nH]c2nc(-c3ccc(O)cc3)c(Br)cc12)C1CC1
### Response 12.2

====

Exercise: for every item that follows, state its recorded inhibition.
- targetOrSystem: Casein kinase I isoform gamma-3 (Homo sapiens) (UniProt Q9Y6M4);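 further: reported value is the mean percent inhibition of the kinase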
- Sequence (Q9Y6M4 whole entry, looked up, canonical isoform): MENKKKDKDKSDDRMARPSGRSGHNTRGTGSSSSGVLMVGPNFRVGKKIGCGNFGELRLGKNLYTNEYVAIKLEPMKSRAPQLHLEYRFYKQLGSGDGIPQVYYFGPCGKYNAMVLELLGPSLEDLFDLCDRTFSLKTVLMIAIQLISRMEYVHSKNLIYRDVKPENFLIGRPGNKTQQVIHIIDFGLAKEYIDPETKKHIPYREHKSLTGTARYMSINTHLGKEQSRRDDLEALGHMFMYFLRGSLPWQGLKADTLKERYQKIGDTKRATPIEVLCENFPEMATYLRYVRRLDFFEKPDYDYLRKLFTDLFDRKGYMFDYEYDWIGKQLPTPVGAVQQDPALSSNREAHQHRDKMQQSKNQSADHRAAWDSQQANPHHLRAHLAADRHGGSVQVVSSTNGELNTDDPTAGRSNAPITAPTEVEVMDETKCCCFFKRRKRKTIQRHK
- details: at 0.1 µM
Number only, in %; omit the unit.

### Prompt Supply reported inhibition belonging to this molecule: COc1ccc(-c2ccc3c(NC(=O)C4CC4)n[nH]c3n2)cc1
### Response 1.89

### Prompt Output measured inhibition for this item: Cc1ccc(NC(=O)c2ccoc2)cc1-c1ccc(C(=O)NCC2CC2)cc1
### Response 2.63

### Prompt Look up and state reported inhibition for Cc1ccc(C(=O)NC(C)C)cc1-c1ccc(C(=O)NCC2CC2)cc1
### Response -2.79

### Prompt Provide inhibition value for the following molecule: N#Cc1ccc(Oc2nccc(-c3c(-c4ccc(F)cc4)ncn3C3CCNCC3)n2)cc1
### Response 1.83

### Prompt Write down inhibition measured for item Fc1ccc(-c2ncn(C3CCNCC3)c2-c2ccnc(Oc3ccc(Oc4ccccc4)cc3)n2)cc1
### Response 7.8

### Prompt Provide only the value of recorded inhibition for NC(=O)Cc1ccccc1Oc1nccc(-c2c(-c3ccc(F)cc3)ncn2C2CCNCC2)n1
### Response 3.98

### Prompt Let me know recorded inhibition for O=C(Nc1n[nH]c2cc(-c3ccccc3)ccc12)C1CC1 , thanks.
### Response 4.39

### Prompt Please report inhibition for the following molecule: NC(=O)c1cc(-c2ccc(F)cc2)cc(-c2ccncc2)c1N
### Response 4.13

### Prompt Provide only the value of recorded inhibition for Cc1ccc(C(=O)NC2CCC2)cc1-c1ccc(C(=O)NCC2CC2)cc1
### Response 2.2

### Prompt Read the entry Fc1ccc(-c2nc3n(c2-c2ccncc2)CCS3)cc1 and write its reported inhibition.
### Response 0.7

### Prompt Give inhibition for the following molecule: COc1ccc2ncn(-c3cc(O[C@H](C)c4ccccc4Cl)c(C(N)=O)s3)c2c1
### Response -0.98

### Prompt # return recorded inhibition for entry CCC(=O)Nc1ccc(C)c(-c2ccc(C(=O)NCC3CC3)cc2)c1
### Response 1.58

### Prompt Report inhibition, nothing else, for this molecule: COc1ccc2cc(-c3c(-c4ccncc4)nc(-c4ccc([S+](C)[O-])cc4C)n3C)ccc2c1 (stereo unspecified)
### Response -1.01

### Prompt Identify measured inhibition corresponding to Fc1ccc(-c2ncn(C3CCNCC3)c2-c2ccnc(Oc3ccc4c(c3)OCO4)n2)cc1
### Response 4.73

### Prompt Return inhibition (reported value) for this molecule: C#Cc1cccc(Nc2ncnc3ccc(OCCCCNCCS(C)(=O)=O)cc23)c1
### Response -0.3

### Prompt Note inhibition for the molecule shown: CCS(=O)(=O)c1ccc(OC)c(Nc2ncc(-c3ccccc3Cl)o2)c1
### Response -0.55

### Prompt Name the recorded inhibition of the molecule listed here: COC(=O)Nc1nc2ccc(Sc3ccc(NC(=O)Nc4cc(C(F)(F)F)ccc4F)cc3)cc2[nH]1
### Response 0.1

### Prompt Identify the reported inhibition for the following entry. c1ccc(-c2n[nH]cc2-c2ccnc(-c3ccc(OCCN4CCOCC4)cc3)c2)nc1
### Response -0.5

### Prompt Report inhibition, nothing else, for this molecule: COc1ccc(C2=C(N3CCc4ccccc43)C(=O)NC2=O)cc1
### Response 1.81

### Prompt Tell me measured inhibition for Fc1ccc(-c2ncn(CCCN3CCOCC3)c2-c2ccncc2)cc1 please.
### Response 0

### Prompt Tell us which inhibition value is on record for CCS(=O)(=O)c1ccc(OC)c(Nc2ncc(-c3cccc(-c4ccccc4F)c3)o2)c1
### Response 0.39

====

Kindly supply the reported inhibition values for the records listed here.
- targetOrSystem: Protein kinase C theta type (Homo sapiens) (UniProt Q04759);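 further: each value is a mean inhibition of PKC-theta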
- Sequence (Q04759 whole entry, looked up): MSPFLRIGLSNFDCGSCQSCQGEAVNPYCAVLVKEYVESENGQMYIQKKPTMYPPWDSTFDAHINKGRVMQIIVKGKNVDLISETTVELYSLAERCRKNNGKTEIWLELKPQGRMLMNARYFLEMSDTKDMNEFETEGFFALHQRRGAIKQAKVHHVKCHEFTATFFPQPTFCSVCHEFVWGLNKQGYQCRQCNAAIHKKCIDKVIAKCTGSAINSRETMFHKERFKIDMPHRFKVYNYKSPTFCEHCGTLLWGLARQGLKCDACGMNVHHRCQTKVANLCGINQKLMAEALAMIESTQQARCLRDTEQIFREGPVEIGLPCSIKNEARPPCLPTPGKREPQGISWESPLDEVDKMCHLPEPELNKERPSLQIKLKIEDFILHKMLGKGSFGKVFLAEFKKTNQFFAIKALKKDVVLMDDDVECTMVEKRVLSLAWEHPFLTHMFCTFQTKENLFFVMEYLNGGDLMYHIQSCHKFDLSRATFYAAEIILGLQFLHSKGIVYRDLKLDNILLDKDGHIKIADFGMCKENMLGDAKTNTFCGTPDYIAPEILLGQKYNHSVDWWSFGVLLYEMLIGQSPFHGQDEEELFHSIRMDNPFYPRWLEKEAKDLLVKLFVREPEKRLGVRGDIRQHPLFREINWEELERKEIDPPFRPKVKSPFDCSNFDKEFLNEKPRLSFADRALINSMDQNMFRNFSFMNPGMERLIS
- details: at 1 µM
Report the value in % with no unit label.

### Prompt Annotate the compound NCc1ccc(-n2c(-c3nonc3N)nc3cnccc32)cc1 with its measured inhibition.
### Response 59.4

### Prompt Return the recorded inhibition value; entry: Nc1nccc(-c2c(-c3ccc(F)cc3)ncn2C2CCC(O)CC2)n1 (configuration not stated)
### Response 0.4

### Prompt Give a short answer stating reported inhibition for C[C@@H](Oc1cc(-n2cnc3ccc(OCC4CCN(C)CC4)cc32)sc1C(N)=O)c1ccccc1Cl .
### Response 15.3

### Prompt Write down inhibition measured for item N#Cc1ccc(Oc2nccc(-c3c(-c4ccc(F)cc4)ncn3C3CCNCC3)n2)cc1
### Response 3.89

### Prompt Please look at this compound and report its inhibition: CN(C)c1ccc2c(c1)/C(=C/Nc1ccc(S(N)(=O)=O)cc1)C(=O)N2
### Response 0.84

### Prompt Identify the reported inhibition for the following entry. Cc1ccc(C(=O)NC2CCC2)cc1-c1ccc(C(=O)NCC2CC2)cc1
### Response -0.42

### Prompt For the compound Cc1nnc(-c2ccc(C)c(-c3ccc(C(=O)NCc4ccc(Cl)cc4)cc3)c2)o1 , give its reported inhibition.
### Response 3.97

### Prompt Give recorded inhibition. Fc1ccc(-c2ncn(C3CCNCC3)c2-c2ccnc(Oc3ccc(F)c(F)c3)n2)cc1
### Response 2.43

### Prompt Answer with the recorded inhibition of O=C1Nc2ccccc2/C1=C/Nc1ccc(-n2cncn2)cc1 only.
### Response 4.7

### Prompt Tell me its inhibition given CCS(=O)(=O)c1ccc(OC)c(Nc2ncc(-c3cccc(-c4ccccc4F)c3)o2)c1 as the entry.
### Response 2.52

### Prompt Tell me measured inhibition for FC(F)(F)c1cccc(Nc2nccc(-c3cnn4nc(-c5ccccc5)ccc34)n2)c1 please.
### Response 2.39

### Prompt Provide one value: measured inhibition of CS(=O)(=O)CCNCc1cc(-c2cc3c(Nc4ccc(OCc5cccc(F)c5)c(Cl)c4)ncnc3s2)cs1
### Response 4.44

### Prompt Read the entry c1ccc(Oc2ccc(Nc3ncc(-c4ccccc4)o3)cc2)cc1 and write its reported inhibition.
### Response 0.33

### Prompt Given the compound Clc1ccc(CNc2nccc(-c3cnn4ncccc34)n2)cc1 , write its reported inhibition.
### Response 1.73

### Prompt Give the reported inhibition for this compound. Fc1ccc(-c2ncn(C3CCNCC3)c2-c2ccnc(Oc3ccc(Oc4ccccc4)cc3)n2)cc1
### Response 3.54

### Prompt Answer with the recorded inhibition of CN(C)CCOc1ccc(-c2cc(-c3ccc4c(c3)CCC4=NO)c(-c3ccncc3)o2)cc1 only.
### Response -0.42

### Prompt Indicate its recorded inhibition; the compound in question is COc1cc(Nc2ncc3c(C)nc(-c4cccc(C(F)(F)F)c4)n3n2)cc(OC)c1OC
### Response 5.29

### Prompt Note down inhibition recorded for CCS(=O)(=O)c1ccc(OC)c(Nc2ncc(-c3ccccc3Cl)o2)c1
### Response 2.29

### Prompt Supply reported inhibition belonging to this compound: C/C(Nc1ccc(S(N)(=O)=O)cc1)=C1/C(=O)Nc2ccccc21
### Response 3.24

### Prompt Provide one value: measured inhibition of NS(=O)(=O)c1ccc(Nc2cc(-c3ccc(O)c(F)c3)n[nH]2)cc1
### Response -1.1

### Prompt Look up and state reported inhibition for NC(=O)c1cc(-c2ccncc2)cc(-c2ccccc2)c1N
### Response 4.49

### Prompt Name the recorded inhibition of the compound listed here: CCc1nccc2c1nc(-c1nonc1N)n2CC
### Response 0.94
